Origin of the recorded values: PubChem BioAssay (NCI)

System: MDA-MB-231 breast
Experiment: NCI-60 one-dose screen, 48 h (100 = growth as untreated, 0 = no growth, -100 = all killed)
Details: 10 µM unless noted
This is part of a sample that, as a whole, favours compounds with a hit. Of some 83,000 tested, about 20% had one in any assay.
value-type: growth (%)
Answer format: numeric, % implied, no suffix.

// known answers, use as guide
O=C1/C(=C/c2ccc(-c3cccc(C(F)(F)F)c3)o2)SC(=S)N1CCc1ccc(O)cc1: 90.5
COc1cc(/C=C2/C=C(c3ccc(C(C)(C)C)cc3)N(CCc3ccc(S(N)(=O)=O)cc3)C2=O)cc(OC)c1OC: 60.1
O=C(NCc1ccc(Cn2c(=O)sn(-c3ccc(Cl)cc3)c2=O)cc1)OCc1ccc2c(Cl)cc(Cl)c(O)c2n1: 72
C=C1C(=O)O[C@H]2[C@H]1CC/C(CNS(=O)(=O)c1ccc3ccccc3c1)=C\CC[C@@]1(C)O[C@@H]21: 2.57

I would be grateful if you could share the reported growth for "Cc1n(Cc2ccc3ccccc3c2)c(Cl)c(Cl)[n+]1Cc1ccc2ccccc2c1" .
10.6
